- Tested on: human ovarian carcinoma OVCAR3
- Assay name: Tumor cell viability, MTT assay, OVCAR3
- Assay type: cell-based
- Study conditions: OVCAR3, without CEC derived exosomes, read-out: IC50 cytotoxicity of oxaliplatin
Parameter: pIC50
// field semantics: pIC50 = negative decimal log of concentration (mol/L)

Request: Give measured pIC50 for O=C1[O][Pt]2([NH][C@@H]3CCCC[C@H]3[NH]2)[O]C1=O [Oxaliplatin] (human ovarian carcinoma OVCAR3).
Response: 5.19

---

- Test system: human ovarian carcinoma OVCAR3
- Assay name: Tumor cell viability, MTT assay, OVCAR3
- Format: cell-based
- Study conditions: OVCAR3, with CEC derived exosomes (3×10^2 exosomes), read-out: IC50 cytotoxicity of oxaliplatin
- Procedure: Tumor cell viability was measured using an MTT assay.
Parameter: IC50 (nM)
Give the number; nM is assumed, so skip it.

Request: Given O=C1[O][Pt]2([NH][C@@H]3CCCC[C@H]3[NH]2)[O]C1=O , respond with its IC50.
Response: 2300

---

- Test system: human colon carcinoma HCT-116
- Assay name: Tumor cell viability, MTT assay, HCT-116
- Format: cell-based
- Study conditions: HCT-116, with CEC derived exosomes (3×10^2 exosomes), read-out: IC50 cytotoxicity of oxaliplatin
Parameter: IC50 (µM)
Give the number; µM is assumed, so skip it.

Request: Give measured IC50 for O=C1[O][Pt]2([NH][C@@H]3CCCC[C@H]3[NH]2)[O]C1=O [Oxaliplatin] (human colon carcinoma HCT-116).
Response: 6.9

---

- Test system: human colon carcinoma HCT-116
- Assay name: Tumor cell viability, MTT assay, HCT-116
- Format: cell-based
- Study conditions: HCT-116, without CEC derived exosomes, read-out: IC50 cytotoxicity of oxaliplatin
Parameter: pIC50
// field semantics: pIC50 = negative decimal log of concentration (mol/L)

Request: Given O=C1[O][Pt]2([NH][C@@H]3CCCC[C@H]3[NH]2)[O]C1=O [Oxaliplatin] , respond with its pIC50.
Response: 4.79
